# key: entry, value: GI50
Tested on: SNB-19
PROTOCOL_SUMMARY: NCI tumour cell line growth inhibition, 48 h
Activity calls are given as the source filed them. Rule as the data show it: active = GI50 up to about 1.1 µM and inactive = higher.

C=C1C(=O)O[C@@H]2C[C@@]3(C)CC(=O)C=C(C)[C@@H]3C[C@H]12; 17.3 µM (inactive)
N=C(N)N/N=C/c1cnn(C(=N)N)c1; > 100 µM (inactive)
COc1ccccc1-n1nnc2c(N)nc(N)nc21; > 100 µM (inactive)
CSc1ccc(/C=C/c2ccnc3ccccc23)cc1; 17.7 µM (inactive)
O=c1[nH]nc(Cc2ccccc2)n1CCO; > 100 µM (inactive)

# query: GI50 | item CC(C)=CC(=O)c1c(C(=O)O)nc2ccccc2[n+]1[O-] | system: SNB-19 > 100 µM (inactive)

# query: GI50 | item O=[N+]([O-])c1cccc(/N=C2\c3ccccc3CN2c2cccc([N+](=O)[O-])c2)c1 | system: SNB-19 > 100 µM (inactive)

---

Test system: UACC-257
PROTOCOL_SUMMARY: NCI tumour cell line growth inhibition, 48 h
Calls of active or inactive are those of the source. Cut-off read from the data, not from the text of the source: active = GI50 up to about 1.1 µM and inactive = higher.
# key: entry, value: GI50

OCCCCn1cc(Cn2ncc3c(NCc4ccccc4)ncnc32)nn1; > 100 µM (inactive)
CSc1ccc2c(cc1=O)[C@@H](NC(=O)c1ccc(N)cc1)CCc1cc(O)c(O)c(O)c1-2; 18.3 µM (inactive)
CCCn1c2ccccc2c2ccc3c(c21)C(=O)C=CC3=O; 1.78 µM (inactive)

Look up GI50 for this molecule: COc1ccc(-c2nnc3n(C)c4ccccc4n3c2=O)cc1 > 100 µM (inactive)

Look up GI50 for this molecule: CC1=NN(C(=O)CC(=O)Nc2ccccc2Cl)C(=O)C1/N=N/c1ccc(C(=O)O)cc1 (stereo unspecified) > 100 µM (inactive)

Look up GI50 for this molecule: Cc1ncc(COP(=O)(O)O)c(/C=C2\SC(=S)NC2=O)c1O > 100 µM (inactive)

---

# key: entry, value: GI50
Test system: NCI-H522
PROTOCOL_SUMMARY: NCI tumour cell line growth inhibition, 48 h
The source made the active and inactive calls. Cut-off read from the data, not from the text of the source: active = GI50 up to about 1.1 µM and inactive = higher.

Known GI50 results, listed for orientation:
CC(C)(C)OP(=O)(OC(C)(C)C)C(O)c1ccc(/C=C(\C#N)C(N)=O)cc1 (stereo not given); > 100 µM (inactive)
CC(C)(C)[Si](C)(C)OCC1OC(n2ccc(=O)[nH]c2=O)C(O[Si](C)(C)C(C)(C)C)/C1=C/C#N (stereo not given); 3.67 µM (inactive)
C=C1C(=O)O[C@@H]2C[C@@]3(C)CC(=O)C=C(C)[C@@H]3C[C@H]12; 4.46 µM (inactive)
COc1ccc(/C=C2\CCC(CN(C)C)C2=O)cc1OC (stereo not given); 1.95 µM (inactive)
O=C(NNC(=S)NC1CCCCC1)C12CC3CC(CC(C3)C1)C2; > 100 µM (inactive)

# query: GI50 | item COc1cc2c(cc1OC)C1c3ccccc3CCCN1CC2 (stereo not given) | system: NCI-H522 > 100 µM (inactive)

# query: GI50 | item CC1OC(n2cc(F)c(=O)[nH]c2=O)CCC1=O (stereo not given) | system: NCI-H522 > 100 µM (inactive)

# query: GI50 | item CN1S(=O)(=O)N(C)P12(N=P(CP(=NP13(N(C)S(=O)(=O)N1C)N(C)S(=O)(=O)N3C)(c1ccccc1)c1ccccc1)(c1ccccc1)c1ccccc1)N(C)S(=O)(=O)N2C | system: NCI-H522 > 100 µM (inactive)

# query: GI50 | item Cc1ccc(C(=O)O/N=C2/CCC/C2=C\c2ccccc2)cc1 | system: NCI-H522 > 100 µM (inactive)

# query: GI50 | item CCOC(=O)c1sc2nc(SC)nc3c2c1NCN3c1ccc2c(c1)OCO2 | system: NCI-H522 31.1 µM (inactive)

# query: GI50 | item O=C1N=C2N=C(c3ccc(Cl)cc3)N(c3ccc(Cl)cc3)N2Sc2ccccc21 | system: NCI-H522 > 100 µM (inactive)

# query: GI50 | item OC1(C23CC4CC(CC(C4)C2)C3)CSCC1(O)C12CC3CC(CC(C3)C1)C2 (stereo not given) | system: NCI-H522 > 100 µM (inactive)
